Ref: ChEMBL document CHEMBL1201862

- Test system: SF-268
- test.details: NCI tumour cell line growth inhibition, 48 h
The source made the active and inactive calls. No stated cut-off is given here; in the data, active = GI50 up to about 1.1 µM and inactive = higher.
parameter.measured: GI50

                                    molecule               result
 0  CCCCN(CCCC)C1(c2cc3ccccc3s2)CCCCC1.[O-][Cl+3]([O-])([O-])O   19.2 µM (inactive)
 1  COc1ccc(N2C(=O)C3c4[nH]c5ccc(C)cc5c4C4CCC(C)CC4C3C2=O)cc1 (stereo unspecified)   37.8 µM (inactive)
 2  CCCCCCCCOC(=O)c1cc([N+](=O)[O-])c(Sc2[nH]cnc3ncnc2-3)c([N+](=O)[O-])c1   2.38 µM (inactive)
 3  COc1cc(S(=O)(=O)Nc2ccc(-c3csc(N4C(=O)CSC4c4cccs4)n3)cc2)ccc1Cl (stereo unspecified)   19.8 µM (inactive)
 4  CC(=O)O[C@H]1C#C/C=C\C#CC[C@@H]2C(=O)N(C(=O)OC(C)(C)C)[C@@H]12   16.8 µM (inactive)
 5                       C=C=C(C)[Si](C)(C)C  > 100 µM (inactive)
 6                         C1CSCCCSCCSCCCSC1  > 100 µM (inactive)
 7  Cc1cc(Br)ccc1/N=N/c1c(C)nn(-c2ccccc2)c1-c1ccccc1  > 100 µM (inactive)
 8  CCCCCCCCCCCCCCCCCCN(C)CC(COP(=O)([O-])OCC[N+](C)(C)C)OC (stereo unspecified)   8.17 µM (inactive)
 9  Cc1ccc(-c2cc(-c3ccccc3)c(C#N)c(=O)[nH]2)cc1  > 100 µM (inactive)
10  CC(=O)OC1C/C(C)=C/CCC(C)/C=C/C2(C)CCC(C(C)(C)O)C12 (stereo unspecified)   61.7 µM (inactive)
11  COC1C(O)=C2C(=O)OC(C)(O)/C=C/C=C\C=C/C=C/C(c3ccccc3)NC(=O)/C=C/C=C/C=C/C=C/C2(C)C1O (stereo unspecified)   0.0171 µM (active)
12          O=C1C=Cc2c(-c3ccccc3)oc3cccc1c23   21.1 µM (inactive)
13  N=C1N(c2ccccc2)C(=O)C23CCCC2C13N1CCOCC1 (stereo unspecified)  > 100 µM (inactive)
14  O=C(N/N=C/C=C/c1ccc([N+](=O)[O-])o1)c1ccc(C(=O)N/N=C/C=C/c2ccc([N+](=O)[O-])o2)cc1   15.8 µM (inactive)
15                           O=C1CCNC(=O)NC1  > 100 µM (inactive)
16         COC(=O)c1cccc2c3ccccc3c3ccccc3c12   37.2 µM (inactive)
17  COC1C=CC(C(=O)[N+]2=Cc3[nH]c4ccccc4c3CC2)O1 (stereo unspecified)  > 100 µM (inactive)
18  COc1cccc2c(N)c3cccc(C(=O)NCCN(C)C)c3nc12   0.0659 µM (active)
19  COC12c3ccccc3-c3ccccc3C1[C@H]1C(=O)OC(=O)[C@H]12 (stereo partly specified)   > 10 µM (inactive)
20  COC(=O)CC1CC2(C(=O)OC)c3[nH]c4ccccc4c3CCN2C1=O (stereo unspecified)  > 100 µM (inactive)

====

- Tested on: K562
- test.details: NCI tumour cell line growth inhibition, 48 h
Calls of active or inactive are those of the source. No stated cut-off is given here; in the data, active = GI50 up to about 1.1 µM and inactive = higher.
Recorded GI50 by entry
parameter.measured: GI50

In [3]: df
Out[3]:
                                   molecule               result
0  CCOP(=O)(OCC)C(C)(CC)NC (stereo unspecified)  > 100 µM (inactive)
1           Nc1nc(O)c2nc(N)n(Cc3ccccc3)c2n1  > 100 µM (inactive)
2  C=C1CC[C@@H]2C(C)(C)C(O)CCC2(C)C1COc1ccc2ccc(=O)oc2c1 (stereo partly specified)   16.6 µM (inactive)
3            CC/C(Cl)=N\OC(=O)Nc1ccc(OC)cc1   1.98 µM (inactive)
4  CCCCC(/C=N/NC(=N)N)CC.Cc1cc(O)c(C(C)C)cc1S(=O)(=O)O   26.5 µM (inactive)
5  Cn1c(=O)c(C(c2ccccc2)c2c(O)c3ccccc3n(C)c2=O)c(O)c2ccccc21  > 100 µM (inactive)

====

- System: T47D
- test.details: NCI tumour cell line growth inhibition, 48 h
The source made the active and inactive calls. No stated cut-off is given here; in the data, active = GI50 up to about 1.1 µM and inactive = higher.
Measured GI50 of individual entries
parameter.measured: GI50

In [3]: df
Out[3]:
                                    molecule                result
 0               C=CCOC(=O)Cn1cnc2c(N)ncnc21   > 100 µM (inactive)
 1  CCOC(=O)c1nc2ccc(C(F)(F)F)cc2nc1Nc1ccc(OC)c(OC)c1   > 100 µM (inactive)
 2  CCOC(=O)C1NCCc2c1[nH]c1ccccc21 (stereo unspecified)    > 10 µM (inactive)
 3  COc1c(-c2nc3ccc(N4CCN(C)CC4)cc3[nH]2)cc(OC)c2[nH]c(COC(C)=O)nc12    24.8 µM (inactive)
 4  CC1=NN(c2ccc(S(=O)(=O)O)cc2)C(=O)/C1=C/c1ccc(Cl)cc1.c1ccncc1   > 100 µM (inactive)
 5  CN(C)c1ccc(C2C(Cl)C(=O)N2NC(=O)c2c(Cl)c(Cl)c(Cl)c(Cl)c2-c2nc3ccccc3[nH]2)cc1 (stereo unspecified)    6.62 µM (inactive)
 6  CCCCCCCCCCCCCCCCCCN(C)CC(COP(=O)([O-])OCC[N+](C)(C)C)OC (stereo unspecified)  > 80.7 µM (inactive)
 7            C#CCn1c(=O)c2ccccc2n(CC#C)c1=O    > 10 µM (inactive)
 8  N=C(CCl)NC1CN2CCC1CC2 (stereo unspecified)    56.1 µM (inactive)
 9   CCCCCCCCNC(=S)N/C=C1\C(=O)Oc2ccccc2C1=O    65.8 µM (inactive)
10  C[n+]1cc2cc(O)c(O)cc2c2ccc3cc(O)c(O)cc3c21.c1ccncc1    5.86 µM (inactive)

====

- Tested on: RXF 393
- test.details: NCI tumour cell line growth inhibition, 48 h
Calls of active or inactive are those of the source. Cut-off read from the data, not from the text of the source: active = GI50 up to about 1.1 µM and inactive = higher.
Classes used: active, inactive

>>> print(df.to_string())
                                    compound  measured_target  assigned_category
 0  COC(=O)CC1NC(=O)C1C1(C)OCCO1 (stereo unspecified)          RXF 393           inactive
 1  CCN1C(=O)N(C)C(O)c2c1nc1ccccn1c2=O (stereo unspecified)          RXF 393           inactive
 2  CS/C(Nc1ccccc1)=C1\C(=O)N(c2ccccc2)N=C1C          RXF 393           inactive
 3  CC(=O)OCC(OC(C)=O)C(OC(C)=O)C(OC(C)=O)C(C=NN(C(C)=O)S(=O)(=O)c1ccc(/C=C2\NC(=O)N(C)C2=O)cc1)OC(C)=O (stereo unspecified)          RXF 393           inactive
 4  O=[N+]([O-])c1ccc(S(=O)(=O)N=Ic2ccccc2)cc1          RXF 393           inactive
 5  CC(C)(C)c1ccc(-c2nnc(SCc3ccc(Cl)cc3)n2-c2cccc(C(F)(F)F)c2)cc1          RXF 393           inactive
 6                     CC(C)c1cccc(=O)c(O)c1          RXF 393             active
 7          O=CC1=CCCN(CCc2c[nH]c3ccccc23)C1          RXF 393           inactive
 8  O=c1[nH]c(=O)n(C2CC(O)C(CO)O2)cc1/N=N/NCCc1ccccc1 (stereo unspecified)          RXF 393           inactive
 9  Cc1sccc1C(=S)Nc1ccc(Cl)c(/C=N/OC(C)(C)C)c1          RXF 393           inactive
10         NCCSc1nc(-c2ccccc2)c(-c2ccccc2)o1          RXF 393           inactive

====

- Tested on: HOP-92
- test.details: NCI tumour cell line growth inhibition, 48 h
Calls of active or inactive are those of the source. Rule as the data show it: active = GI50 up to about 1.1 µM and inactive = higher.
The following molecules are shown together with reported GI50 values.
parameter.measured: GI50

                                    molecule  measured_target               result
 0  O=C(NCc1cccs1)OC1CC2CCC1C2 (configuration not stated)           HOP-92  > 100 µM (inactive)
 1  COC(=O)C1CCC(=S)N1C(C)=O (configuration not stated)           HOP-92  > 100 µM (inactive)
 2  CCOC(=O)C1=C(C)N(NC(=O)Nc2ccccc2)C2(N)N(NC(=O)Nc3ccccc3)C(C)=C(C(=O)OCC)C12C(=O)OCC (configuration not stated)           HOP-92   18.8 µM (inactive)
 3  C=C1CC[C@@H]2C(C)(C)C(O)CCC2(C)C1COc1ccc2ccc(=O)oc2c1 (some centres not stated)           HOP-92   17.3 µM (inactive)
 4  Cc1ccc(C2SCC(=O)N2c2ccc(-n3c(-c4ccccc4)nc4ccccc4c3=O)cc2)cc1 (configuration not stated)           HOP-92   15.2 µM (inactive)
 5  O=C1NCN(c2ccccc2)C12CCN(CCCN1CCN(CCOC(c3ccccc3)c3ccccc3)CC1)CC2           HOP-92   1.93 µM (inactive)
 6  COC(=O)NN1C(=O)C(=P(c2ccccc2)(c2ccccc2)c2ccccc2)C(C(=O)OC)=C1C           HOP-92   12.6 µM (inactive)
 7  COc1ccccc1NC(=O)C(=O)C(C#N)CC(C)(C)C=O (configuration not stated)           HOP-92  > 100 µM (inactive)
 8  O=C(O)C(Cc1c[nH]c2ccccc12)C(=O)NO (configuration not stated)           HOP-92  > 100 µM (inactive)
 9  Cc1ccc(Nc2nc(=O)c3c4ccccc4n(C(=O)OC(C)(C)C)c3s2)cc1           HOP-92   23.1 µM (inactive)
10           C1CCN(c2nc(=[N+]3CCCCC3)ss2)CC1           HOP-92  > 100 µM (inactive)
11  COc1cc(S(=O)(=O)Nc2ccc(-c3csc(N4C(=O)CSC4c4cccs4)n3)cc2)ccc1Cl (configuration not stated)           HOP-92   23.7 µM (inactive)
12    Cn1c2ccc(F)cc2c2ccc3c(c21)C(=O)C=CC3=O           HOP-92   6.22 µM (inactive)
13  O=c1c2cc([N+](=O)[O-])ccc2[nH]n1Cc1ccccn1           HOP-92  > 100 µM (inactive)
14      CC(=O)c1cccc(Nc2nc3ccccc3c3occc23)c1           HOP-92   9.64 µM (inactive)
15  Cc1ccc(-c2cc(-c3ccccc3)c(C#N)c(=O)[nH]2)cc1           HOP-92   56.9 µM (inactive)
16  C=CC(O)C#Cc1cnc(OC)nc1OC (configuration not stated)           HOP-92  > 100 µM (inactive)
17  COC(C)(C)OCCN1CCN(CCN2C3=C(C=C(C(C)=O)C3)Sc3ccccc32)CC1           HOP-92   29.5 µM (inactive)
18  CCCCCCC(C)CCCCCCCCCCC(=O)O (configuration not stated)           HOP-92  > 100 µM (inactive)
19       COC(=O)/C=C1/OC(c2ccccc2)=C(Cl)C1=O           HOP-92     20 µM (inactive)
20         C/C(CC(=O)Nc1ccc(C)cc1)=N\NC(N)=S           HOP-92  > 100 µM (inactive)
21  COc1c(OC)c(OC)c2c(=O)c(OC)c(-c3ccc4c(c3)OCO4)oc2c1OC           HOP-92   1.48 µM (inactive)
